All figures here come from the Immune Epitope Database (IEDB).

- TGT: HLA-C*08:02
- EXPERIMENT: IEDB peptide-MHC binding, purified MHC/direct/fluorescence; filed as Kd, often an IC50 or EC50 that approximates it; bounds were set here for any values at or beyond the usual limits of such assays
- STUDY_CONDITIONS: source organism: Bacillus anthracis str. A0389
PROPERTY_LABEL: pKd
Numbers only, as −log10 of the molar value.

Q) Form: Entry = YTLNDAPYI | System = HLA-C*08:02 | pKd = ____
A) 6.74

---

- TGT: HLA-A*24:03
- EXPERIMENT: IEDB peptide-MHC binding, purified MHC/direct/fluorescence; filed as Kd, often an IC50 or EC50 that approximates it; bounds were set here for any values at or beyond the usual limits of such assays
- STUDY_CONDITIONS: source organism: Brucella melitensis
pKd: −log10 of the molar value.
PROPERTY_LABEL: pKd

Q) May I ask what pKd has been recorded for RLWNGRRCR ?
A) ≤ 4.70

---

- TGT: HLA-A*02:03
- EXPERIMENT: IEDB peptide-MHC binding, purified MHC/competitive/radioactivity; filed as Kd, often an IC50 or EC50 that approximates it; bounds were set here for any values at or beyond the usual limits of such assays
- STUDY_CONDITIONS: source organism: Dengue virus 1 Brazil/97-11/1997
PROPERTY_LABEL: Kd (nM)
Numbers only, in nM.

Q) May I ask what Kd has been recorded for FLAIPPTAGI ?
A) 12.8

---

- TGT: HLA-B*46:01
- EXPERIMENT: IEDB peptide-MHC binding, purified MHC/direct/fluorescence; filed as Kd, often an IC50 or EC50 that approximates it; bounds were set here for any values at or beyond the usual limits of such assays
- STUDY_CONDITIONS: source organism: Escherichia coli O157:H7
pKd: −log10 of the molar value.
PROPERTY_LABEL: pKd

Q) May I ask what pKd has been recorded for EQRLIDICV ?
A) ≤ 4.70

---

- TGT: HLA-A*01:01
- EXPERIMENT: IEDB peptide-MHC binding, purified MHC/competitive/fluorescence; bounds were set here for any values at or beyond the usual limits of such assays
- STUDY_CONDITIONS: source organism: Zaire ebolavirus
pIC50: −log10 of the molar value.
PROPERTY_LABEL: pIC50

- SEQUENCE_CHAIN: "YLEGHGFRF"
  pIC50: "≤ 4.12"

We next turn to a different sequence, shown below.
Q) May I ask what pIC50 has been recorded for HKEGAFFLY ?
A) ≤ 3.87

---

- TGT: HLA-A*26:01
- EXPERIMENT: IEDB peptide-MHC binding, purified MHC/competitive/fluorescence; filed as Kd, often an IC50 or EC50 that approximates it; bounds were set here for any values at or beyond the usual limits of such assays
- STUDY_CONDITIONS: source organism: Lechiguanas virus
PROPERTY_LABEL: Kd

Q) May I ask what Kd has been recorded for AMPKTIYEL ?
A) ≥ 20 µM

---

- TGT: HLA-B*15:17
- EXPERIMENT: IEDB peptide-MHC binding, purified MHC/direct/fluorescence; filed as Kd, often an IC50 or EC50 that approximates it; bounds were set here for any values at or beyond the usual limits of such assays
- STUDY_CONDITIONS: source organism: Giardia lamblia ATCC 50803
PROPERTY_LABEL: pKd
Answers are plain numbers, as −log10 of the molar value.

Q) May I ask what pKd has been recorded for KAMSTPFSL ?
A) 8.89
